- assay procedure: Oral bioavailability in overnight fasted Beagle dog at 2.37 mg/kg measured upto 24 hrs by LC-MS/MS analysis
- Format: ADME, organism-based, Canis lupus familiaris
- condition label: in vivo
metric name: bioavailability (%)
# unit: % | format: bare number

Problem: Item COc1cc(N[C@H](C(=O)c2c[nH]c3ccc(OC(F)(F)F)cc23)c2ccc(Cl)cc2OC)cc(S(C)(=O)=O)c1 has what recorded bioavailability?
Result: 51

---

- assay procedure: Volume of distribution at steady state in Sprague-Dawley rat at 2.5 mg/kg, iv measured after 24 hrs by LC-MS/MS analysis
- Type: ADME, organism-based
- condition label: in vivo, read-out: Vdss
metric name: Vd (L/kg)
Give just the numeric value; L/kg need not be written.

Problem: Field request: Vd | item: COc1cc(NC(C(=O)c2c[nH]c3cc(OC)c(C)cc23)c2ccc(F)cc2OC)cc(S(C)(=O)=O)c1 (single isomer, unassigned; (+))
Result: 5.5

Problem: Recorded Vd for COc1cc(NC(C(=O)c2c[nH]c3cc(OC)c(C)cc23)c2ccc(F)cc2OCCO)cc(S(C)(=O)=O)c1 (single isomer, unassigned; (+)) , please?
Result: 9.6

Problem: Any idea what its Vd is? The compound is COc1cc(NC(C(=O)c2c[nH]c3cc(OC)c(C)cc23)c2ccc(Cl)cc2OC)cc(S(C)(=O)=O)c1 (centres undefined)
Result: 8.8

Problem: # Vd lookup, item COc1cc(NC(C(=O)c2c[nH]c3cc(F)ccc23)c2ccc(F)cc2OC)cc(S(C)(=O)=O)c1 (centres undefined)
Result: 7.2

---

- assay procedure: Chromatographic hydrophobicity index, log D of the compound at pH 7.4 by LC/MS analysis
- Assay type: physicochemical
- condition label: buffer
metric name: Chromatographic log D at pH 7.4

Take a look at these entries with their results.
molecule	Chromatographic log D at pH 7.4
COc1cc(NC(C(=O)c2c[nH]c3ccc(C(F)(F)F)cc23)c2ccc(Cl)cc2OC)cc(S(C)(=O)=O)c1 (single isomer, unassigned; (+))	3.87
COc1cc(NC(C(=O)c2c[nH]c3cc(OC)ccc23)c2ccc(Cl)cc2OC)cc(S(C)(=O)=O)c1 (single isomer, unassigned; (+))	3.23
COc1cc(NC(C(=O)c2c[nH]c3cc(F)ccc23)c2ccc(F)cc2OC)cc(S(C)(=O)=O)c1 (stereo not given)	3.23
COc1cc(NC(C(=O)c2c[nH]c3cc(OC)c(F)cc23)c2ccc(Cl)cc2OC)cc(S(C)(=O)=O)c1 (single isomer, unassigned; (+))	3.22
COc1cc(N[C@H](C(=O)c2c[nH]c3ccc(OC(F)(F)F)cc23)c2ccc(Cl)cc2OC)cc(S(C)(=O)=O)c1	3.94
COc1cc(NC(C(=O)c2c[nH]c3cc(F)c(C)cc23)c2ccc(Cl)cc2OC)cc(S(C)(=O)=O)c1 (single isomer, unassigned; (+))	3.68
COc1cc(NC(C(=O)c2c[nH]c3c(C)c(OC)ccc23)c2ccc(Cl)cc2OC)cc(S(C)(=O)=O)c1 (single isomer, unassigned; (+))	3.59
COc1cc(NC(C(=O)c2c[nH]c3c(C)c(F)ccc23)c2ccc(Cl)cc2OC)cc(S(C)(=O)=O)c1 (single isomer, unassigned; (+))	3.73

Problem: # get_value(readout='Chromatographic log D at pH 7.4', item= COc1cc(NC(C(=O)c2c[nH]c3c(C)cc(OC(F)(F)F)cc23)c2ccc(Cl)cc2OC)cc(S(C)(=O)=O)c1 (stereo not given) )
Result: 4.16

Problem: What does the data say about its Chromatographic log D at pH 7.4? Entry: COc1cc(NC(C(=O)c2c[nH]c3cc(OC)c(C)cc23)c2ccc(F)cc2OCCO)cc(S(C)(=O)=O)c1 (single isomer, unassigned; (+))
Result: 2.98

Problem: Which Chromatographic log D at pH 7.4 value belongs to COc1cc(NC(C(=O)c2c[nH]c3cc(OC)c(C)cc23)c2ccc(F)cc2OC)cc(S(C)(=O)=O)c1 (single isomer, unassigned; (+)) ?
Result: 3.36

Problem: Need Chromatographic log D at pH 7.4, item COc1cc(NC(C(=O)c2c[nH]c3cc(F)ccc23)c2ccc(Cl)cc2OC)cc(S(C)(=O)=O)c1 (single isomer, unassigned; (+))
Result: 3.46

Problem: Would you mind telling me what Chromatographic log D at pH 7.4 value was observed for COc1cc(NC(C(=O)c2c[nH]c3cc(OC)c(C)cc23)c2ccc(Cl)cc2OCCO)cc(S(C)(=O)=O)c1 (single isomer, unassigned; (+)) ?
Result: 3.24

Problem: Given the molecule COc1cc(NC(C(=O)c2c[nH]c3cc(OC)c(OC(F)(F)F)cc23)c2ccc(Cl)cc2OC)cc(S(C)(=O)=O)c1 (single isomer, unassigned; (+)) , what is its reported Chromatographic log D at pH 7.4?
Result: 3.82
